Entry source: PubChem BioAssay (NCI)

Test system: CAKI-1 renal
assay name: NCI-60 one-dose screen, 48 h
condition description: 10 µM unless noted
Compounds without any hit were thinned out: in the full panel of roughly 83,000, 20% have a hit. The source made the active and inactive calls. Rule for the calls: active = growth percent below 10; inactive = the rest.
Pick one: T for active, F for inactive

Which outcome did this test record for the compound "CN(C)CCCNC(=O)c1cncnc1Nc1ccc(OCc2cccc(F)c2)c(Cl)c1" ?
T

Which outcome did this test record for the compound "CC(C)(C)n1cc(-c2ccnc(NCCNS(=O)(=O)c3ccc(O)cc3)c2)c(-c2cccc(O)c2)n1" ?
F

Which outcome did this test record for the compound CCN1C(=O)N(CC)C2C1NC(=S)N2/N=C/c1ccc(OC)cc1 (stereo not given) ?
F

Which outcome did this test record for the compound "COc1ccc(NC(=O)Nc2ccc(OCCCCCC(=O)NO)cc2)cc1" ?
F

Which outcome did this test record for the compound "CN1C(=O)/C(=C2\SC(=Nc3ccccc3)N(Nc3ccccc3)C2=O)c2ccccc21" ?
F

Which outcome did this test record for the compound CC1=C(CCC(C)NCc2ccc(OCCCN3CCCCC3)cc2)C(C)(C)CCC1 (stereo not given) ?
T

Which outcome did this test record for the compound "O=C(O)c1ccc(-c2ccc(/C=N/Nc3nc(Nc4ccccc4)nc(N4CCCCC4)n3)o2)cc1" ?
T

Which outcome did this test record for the compound "COc1ccc(N2CCN(C(=O)c3sc4nc(C)c(Br)c(C)c4c3N)CC2)cc1" ?
F

Which outcome did this test record for the compound COc1ccc(/C=C/C(c2cc(OC)c(OC)c(OC)c2)n2ccnc2)cc1O (stereo not given) ?
F

Which outcome did this test record for the compound "CCOC(=O)c1cc(C(=O)c2cc(OC)c(OC)c(OC)c2)n2ccccc12" ?
F
